Consider the following compounds; for each one, report its Bliss excess.
test system: DBTRG-05MG (Glioblastoma); experiment: Bliss excess, mean over the matrix (fraction); higher = more synergy;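 also: after 72 h of two-drug dosing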
Give a plain numeric answer without units written out.

Challenge: Give reported Bliss excess value for Cc1cc2ncnn2cc1Nc1ncc2c(n1)n(C1CCOCC1)c(=O)n2C [AZD7648] + O=C(c1cc(Cc2n[nH]c(=O)c3ccccc23)ccc1F)N1CCN(C(=O)C2CC2)CC1 [Olaparib] (first compound max 10 µM, 7x7, partner max 10 µM)
Response given: -0.0477

Challenge: Give reported Bliss excess value for CN(CCO)CC[C@H](CSc1ccccc1)Nc1ccc(S(=O)(=O)NC(=O)c2ccc(N3CCC([C@@H](O)c4ccccc4-c4ccc(Cl)cc4)CC3)cc2)cc1S(=O)(=O)C(F)(F)F [AZD4320] + C1CN(CCC1(C(=O)N[C@@H](CCO)C2=CC=C(C=C2)Cl)N)C3=NC=NC4=C3C=CN4 [Capivasertib] (first compound max 1 µM, 7x7, partner max 3 µM)
Response given: -0.047

Challenge: Give reported Bliss excess value for CCN(CCO)CCCOc1ccc2c(Nc3cc(CC(=O)Nc4cccc(F)c4)[nH]n3)ncnc2c1 [AZD2811] + C[C@@H]1COCCN1C2=NC(=NC(=C2)C3(CC3)[S@](=N)(=O)C)C4=C5C=CNC5=NC=C4 [AZD6738] (first compound max 1 µM, 7x7, partner max 10 µM)
Response given: -0.0657
